# Test system: intact ZIKV particles
# method-notes: Direct ELISA vs. intact ZIKV particles
# Type: binding, Zika virus
# particulars: four parameters logistic fit; peptide 20 μM in PBS (4G2 1 μg/mL in PBST)
measurement-name: FPLR—maximum

Some substances with recorded FPLR—maximum:
> print(dat)
                                  substance                   observed
1  C-KRNATP [X1, experimental peptide with N-terminal cysteine, labelled with maleimide-PEG2-biotin for ELISA]  0.973 Absorbance (450 nm)
2  C-GSKANNG [H1, experimental peptide with N-terminal cysteine, labelled with maleimide-PEG2-biotin for ELISA]  0.826 Absorbance (450 nm)
3  C-KTDAYS [X2, experimental peptide with N-terminal cysteine, labelled with maleimide-PEG2-biotin for ELISA]  0.915 Absorbance (450 nm)

Now for another entry.
Entry under review: C-SHRNATA [H2, experimental peptide with N-terminal cysteine, labelled with maleimide-PEG2-biotin for ELISA] . Reported FPLR—maximum?
0.683 Absorbance (450 nm)
